Assay: UV absorption maximum (λmax) in solvent
Format: physicochemical
Conditions: in EtOH; Table MC1
test_readout: λmax [nm]

Worked set:
{"compound": "CCOC(=O)C(C(=O)OCC)=C1C=C(NCC2(C)CC(NC3=CC(=C(C(=O)OCC)C(=O)OCC)CC(C)(C)C3)CC(C)(C)C2)CC(C)(C)C1 (stereo not shown)", "reported_result": "378(EtOH) nm"}
{"compound": "CCOC(=O)/C(C#N)=C1\\C=C(NCCCCCCNC2=C/C(=C(/C#N)C(=O)OCC)CCC2)CCC1", "reported_result": "388(EtOH) nm"}
{"compound": "CCOC(=O)C(C(=O)OCC)=C1C=C(NCCNC2=CC(=C(C(=O)OCC)C(=O)OCC)CC(C)(C)C2)CC(C)(C)C1", "reported_result": "383(EtOH) nm"}
{"compound": "CCOC(=O)C(C(=O)OCC)=C1C=C(NCCCCCCNC2=CC(=C(C(=O)OCC)C(=O)OCC)CCC2)CCC1", "reported_result": "370(EtOH) nm"}
{"compound": "CCOC(=O)/C(C#N)=C1\\C=C(N2CCN(C3=C/C(=C(/C#N)C(=O)OCC)CC(C)(C)C3)CC2)CC(C)(C)C1", "reported_result": "406(EtOH) nm"}

Below are 3 compounds. Give each one its λmax [nm].
1. CCCCC(CC)COC(=O)/C(C#N)=C1/C=C(NC2CCCCC2NC2=C/C(=C(\C#N)C(=O)OCC(CC)CCCC)CCC2)CCC1 (stereo not shown)
2. CC1(C)CC(NC2CCCCC2NC2=CC(=C(C#N)C#N)CC(C)(C)C2)=CC(=C(C#N)C#N)C1 (stereo not shown)
3. CCOC(=O)/C(C#N)=C1\C=C(NC2CC(C)(C)CC(C)(CNC3=C/C(=C(\C#N)C(=O)OCC)CC(C)(C)C3)C2)CC(C)(C)C1 (stereo not shown)

1: 401(EtOH) nm; 2: 357/388(EtOH); 3: 391(EtOH) nm

Report λmax [nm] for each item below.
1. CCOC(=O)/C(C#N)=C1\C=C(NCCNC2=C/C(=C(/C#N)C(=O)OCC)CC(C)(C)C2)CC(C)(C)C1
2. COC(=O)C(C(=O)OC)=C1C=C(NC2CCCCC2NC2=CC(=C(C(=O)OC)C(=O)OC)CCC2)CCC1 (stereo not shown)
3. CCOC(=O)C(C(=O)OCC)=C1C=C(N2CCN(C3=CC(=C(C(=O)OCC)C(=O)OCC)CC(C)(C)C3)CC2)CC(C)(C)C1
4. CCOC(=O)C(C(=O)OCC)=C1C=C(NC2CCCCC2NC2=CC(=C(C(=O)OCC)C(=O)OCC)CC(C)(C)C2)CC(C)(C)C1 (stereo not shown)

1. 366,398(EtOH) nm
2. 389(EtOH) nm
3. 373(EtOH) nm
4. 384(EtOH) nm

λmax [nm] for CCCCC(CC)COC(=O)/C(C#N)=C1/C=C(NCCNC2=C/C(=C(\C#N)C(=O)OCC(CC)CCCC)CC(C)(C)C2)CC(C)(C)C1 (stereo not shown) ?
366,398(EtOH) nm
